- procedure_text: Cell Viability - LYMP2-002 (AID 977);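 further: compound exposure lasted 24 h at 37 °C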
- cond: LYMP2-002 lymphoblastoid cell viability, qHTS; series mostly up to 92.2 µM
Results filed as inconclusive are left out. Activity calls are given as the source filed them. The call rests on the fitted dose curve; in most records, active means well fitted cell-killing curve with a large enough effect; inconclusive means small, poorly fitted or top-dose-only effect; inactive means flat fitted curve, though single readings scatter.
Outcome (select one): active, inactive

Query: Hi, sorry to bother you, what did the test record for "C=C(C)c1ccccc1" ?
Result: inactive

Query: I'd appreciate the recorded outcome for O=C1OC(O)C(C(Cl)Cl)=C1Cl (stereo unspecified) from this test.
Result: active

Query: For this compound, state the assay outcome: "Cc1cccc(O)c1C"
Result: inactive

Query: Would you mind telling me which call this test gave "CN(C)c1ccc(C2(c3ccc(N(C)C)cc3)OC(=O)c3cc(N(C)C)ccc32)cc1" ?
Result: inactive

Query: Test call for this compound, please: "c1ccc2c(c1)ccc1cc3c(ccc4ccccc43)cc12"
Result: inactive

Query: In this assay, the call recorded for "O=C(OCC(COC(=O)c1ccccc1)(COC(=O)c1ccccc1)COC(=O)c1ccccc1)c1ccccc1" was what?
Result: inactive

* * *

- procedure_text: Stat Signaling Pathway (AID 446);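 further: ME-180 cervical cancer cells given 40 pM IL-6 alongside compound; SIE-controlled beta-lactamase reporter measured as 460/530 nm FRET emission ratio; on the % scale 0 is the no-effect control and ±100 the full control effect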
- cond: ME-180 (cervical carcinoma) SIE beta-lactamase reporter, IL-6 stimulated, 5 h; at 17.2 µM (top of the series) unless noted
Inconclusive results are not listed.
property_name: activity, negative = inhibition (%)
The reply should be a number in %, with the unit left off.

Query: Entry "COC(=O)[C@H]1CCCN1C(=O)Nc1cccc(Oc2c(F)c(F)c(F)c(F)c2F)c1" : reported activity, negative = inhibition = ?
Result: -7.79

Query: What value of activity, negative = inhibition has been reported for the following molecule? "CCNC(=O)N(C)c1nncnc1C(=O)NC"
Result: -6.45

Query: Please give the measured activity, negative = inhibition for this molecule: "Cc1ccccc1NC(=O)NCCc1nc2ccccc2[nH]1"
Result: -7.53

Query: State the recorded activity, negative = inhibition for this entry: Cn1c(=O)c2c(nc(NCC(O)CO)n2CCc2ccccc2)n(C)c1=O (centres undefined)
Result: 1.91

Query: Item under review: "CC(=O)c1cc(C#N)c(SCc2ccncc2)nc1C" . Reported activity, negative = inhibition?
Result: -3.61

Query: # activity, negative = inhibition lookup, item COc1ccc(OC)c(C2/C(=C(\O)c3ccc4c(c3)OCCO4)C(=O)C(=O)N2CCCN(C)C)c1 (centres undefined)
Result: -7.15

Query: Reported activity, negative = inhibition, molecule "CC(=O)NCC(=O)OCN1C(=O)c2ccccc2C1=O" : ____
Result: 0.512

Query: Recorded activity, negative = inhibition of CC(O)CNc1nc2c(c(=O)n(C)c(=O)n2C)n1CCc1ccccc1 (centres undefined) , please.
Result: -8.4

Query: // returns reported activity, negative = inhibition for input "COC(=O)CSc1nc(C)c(C(C)=O)cc1C#N"
Result: 7.71

Query: Entry under review: "CC(=O)Oc1ccc2c(C)cc(=O)[nH]c2c1" . Reported activity, negative = inhibition?
Result: -3.86

Query: Look at this molecule and give its reported activity, negative = inhibition. "COc1cc(/C=C\C(=O)N2CCC=CC2=O)cc(OC)c1OC"
Result: -101

Query: Record request: activity, negative = inhibition value, item "Cn1c(=O)c2c(nc(NCc3ccc4c(c3)OCO4)n2Cc2ccccc2F)n(C)c1=O"
Result: -25.4

Query: What value of measured activity, negative = inhibition is listed for "CC(C)Cc1nc(N2CCN(C(=O)c3ccco3)CC2)c(C#N)c2c1CCC2" ?
Result: -7.73

Query: activity, negative = inhibition lookup needed for "CN1Cc2c(N3CCOCC3)nc(SCc3ccccc3)c(C#N)c2CC1(C)C" , thanks.
Result: -1.83

Query: I have this molecule here, "Cn1c(NCc2ccccc2)nc2c1c(=O)n(Cc1ccccc1)c(=O)n2C" , and I need its recorded activity, negative = inhibition.
Result: -21.1

Query: I have this molecule here, "CCn1c(SCC(=O)N2CCOCC2)nc2sc3c(c2c1=O)CCCC3" , and I need its recorded activity, negative = inhibition.
Result: -6.44

Query: Give the measured activity, negative = inhibition of CCCC(C)n1[nH]c(=O)cc1N (centres undefined) .
Result: 3.57

Query: Endpoint output: activity, negative = inhibition of "Cn1c(CSc2ncn[nH]2)nc2ccccc21" . Value?
Result: 20.6

Query: // returns reported activity, negative = inhibition for input "Cc1ccc2c(c1)[C@@H]1CN(C)CC[C@@H]1N2S(=O)(=O)c1ccc(F)cc1"
Result: 5.84

Query: Form field: reported activity, negative = inhibition of CCOC(=O)C1=C(CSc2nc(C)cc(C)c2C#N)OC(N)=C(C#N)C1c1cccs1 (centres undefined)
Result: -6.58

Query: Quick check: activity, negative = inhibition of O=C1C=C(O)CC(c2ccc(Cl)c(Cl)c2)C1 (centres undefined) ?
Result: -4.42

Query: So what does the record say about activity, negative = inhibition for "COc1ccc(-c2nc3n(c2Br)CCC3)cc1" ?
Result: 0.643

Query: Item under review: CC(=O)Nc1ccc(OC(=O)CC2SC(=O)NC2=O)cc1 (centres undefined) . Reported activity, negative = inhibition?
Result: 5.85

Query: Look at this molecule and give its reported activity, negative = inhibition. "O/N=C/c1ccc(OCC(O)COc2ccc(/C=N/O)cc2)cc1"
Result: 4.46

* * *

- procedure_text: Cell Viability - N2a (AID 540);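 further: cells exposed to compound for 40 h at 37 °C; nearly all actives have a fitted effect of over 45% in size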
- cond: N2a mouse neuroblastoma cell viability
Records with an inconclusive call do not appear. Calls of active or inactive are those of the source. The call rests on the fitted dose curve; in most records, active means well fitted cell-killing curve with a large enough effect; inconclusive means small, poorly fitted or top-dose-only effect; inactive means flat fitted curve, though single readings scatter.
In this exercise, the only acceptable responses are t (active), f (inactive)

Query: State the result this test recorded for "CO[C@H]1/C=C/O[C@@]2(C)Oc3c(C)c(O)c4c(O)c(c5c(c4c3C2=O)NC2(CCN(CC(C)C)CC2)N=5)=NC(=O)/C(C)=C\C=C\[C@H](C)[C@H](O)[C@@H](C)[C@@H](O)[C@@H](C)[C@H](OC(C)=O)[C@@H]1C" .
Result: f

Query: For "c1ccc2c(c1)ccc1cc3c(ccc4ccccc43)cc12" , what call appears in the results of this test?
Result: f

Query: Name the outcome recorded for "O=C(OCC(COC(=O)c1ccccc1)(COC(=O)c1ccccc1)COC(=O)c1ccccc1)c1ccccc1" in the assay.
Result: f

Query: Entry "O=Cc1ccc(Cl)c(Cl)c1" : call = ?
Result: f

Query: What call does the record list for "C=CC(=O)OCC(CO)(COC(=O)C=C)COC(=O)C=C" ?
Result: t

Query: For "O=C1OC2(c3cc(Br)c(O)c(Br)c3Oc3c2cc(Br)c(O)c3Br)c2c(Cl)c(Cl)c(Cl)c(Cl)c21" , what call appears in the results of this test?
Result: t

Query: Which outcome was entered for the compound "CNc1ccc(O)cc1" in this test?
Result: t

Query: Kindly provide the recorded test outcome for the following compound: "CC/C(=C(\c1ccccc1)c1ccc(OCCN(C)C)cc1)c1ccc(O)cc1"
Result: t

Query: Given "CN(C)c1ccc(C2(c3ccc(N(C)C)cc3)OC(=O)c3cc(N(C)C)ccc32)cc1" , state the outcome it received in this test.
Result: f

* * *

- procedure_text: MultiTox-Fluor Cytotoxicity Assay - LYMP1-002 - Live Cells (AID 955);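 further: cells exposed to compound for 16 hours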
- cond: LYMP1-002 lymphoblastoid live-cell protease fluorescence viability; series mostly up to 46.1 µM
Results filed as inconclusive are left out. The source made the active and inactive calls. The call rests on the fitted dose curve; in most records, active means well fitted cell-killing curve with a large enough effect; inconclusive means small, poorly fitted or top-dose-only effect, or effect the other way; inactive means flat fitted curve, though single readings scatter.
Would you mind answering with one of these outcomes? active, inactive

Query: Record lookup: outcome of this test for CCC(C)Nc1ccc(NC(C)CC)cc1 (configuration not stated) ?
Result: active

Query: // outcome(item) with item = "CNc1ccc(O)cc1"
Result: active

Query: Recorded call for "CO[C@H]1/C=C/O[C@@]2(C)Oc3c(C)c(O)c4c(O)c(c5c(c4c3C2=O)NC2(CCN(CC(C)C)CC2)N=5)=NC(=O)/C(C)=C\C=C\[C@H](C)[C@H](O)[C@@H](C)[C@@H](O)[C@@H](C)[C@H](OC(C)=O)[C@@H]1C" ?
Result: inactive

Query: How was "O=C1OC2(c3cc(Br)c(O)c(Br)c3Oc3c2cc(Br)c(O)c3Br)c2c(Cl)c(Cl)c(Cl)c(Cl)c21" classified in this test?
Result: inactive

Query: What did this assay record as the result for "CCCCCCCC[N+](CCCCCCCC)(CCCCCCCC)CCCCCCCC" ?
Result: active

Query: What was the test verdict on "C=C(C)c1ccccc1" ?
Result: inactive

Query: Status in this test for "C=CC(=O)OCCOCCOC(=O)C=C" ?
Result: active

* * *

- Test system: AA1029
- procedure_text: qHTS profiling for inhibitors of Plasmodium falciparum proliferation (AID 504749); further: nearly all actives have a fitted effect of over 60% in size
- cond: P. falciparum in erythrocytes, SYBR Green DNA, 72 h; series mostly up to 28.7 µM
Records with an inconclusive call do not appear. Active and inactive are the calls of the source. Calls follow the shape of the dose curve; as a rule, active = well fitted inhibition curve with a large enough effect; inconclusive = small, poorly fitted or top-dose-only effect; inactive = flat fitted curve, though single readings scatter.
Permitted responses: active, inactive

Query: What did the test return for "Oc1cc2cc(CCN3CCN(c4nsc5ccccc45)CC3)c(Cl)cc2[nH]1" ?
Result: inactive

Query: Assay outcome for CC[C@@]1(O)CC2CN(CCc3c([nH]c4ccccc34)[C@](C(=O)OC)(c3cc4c(cc3OC)N(C)C3[C@@](O)(C(=O)OC)C(OC(C)=O)[C@]5(CC)C=CCN6CC[C@@]43C65)C2)C1 (some centres undefined) : what was it?
Result: active

Query: For Nc1nc(/C(=C/CC(=O)O)C(=O)NC2C(=O)N3C(C(=O)O)=CCSC23)cs1 (centres undefined) , what call appears in the results of this test?
Result: inactive

Query: How did this test come out for NC(=O)NC(CCC(=O)O)C(=O)O (centres undefined) ?
Result: inactive

Query: Write down the call the test reported for this molecule. Item: "O=C(OC[C@@H]1O[C@@](O)(COC(=O)c2cccnc2)[C@H](OC(=O)c2cccnc2)[C@H]1OC(=O)c1cccnc1)c1cccnc1"
Result: inactive

Query: Could you kindly confirm the outcome this assay logged for "C[C@]12CCC(=O)C=C1[C@@H]1C[C@H]1[C@H]1[C@@H]3[C@@H]4C[C@H]4[C@@]4(CCC(=O)O4)[C@@]3(C)CC[C@@H]12" ?
Result: inactive

Query: Recorded test call requested for CC(CCC(=O)O)C1CCC2C3C(=O)C[C@@H]4CC(=O)CC[C@@]4(C)C3CC(=O)[C@]12C (some centres undefined)
Result: inactive

Query: Called result for CCCCN1CC(O)C(O)C(O)C1CO (centres undefined)
Result: inactive

Query: What did this assay record as the result for C=C1C(n2cnc3c(=O)[nH]c(N)nc32)C[C@H](O)[C@H]1CO (some centres undefined) ?
Result: inactive
